// data source = ChEMBL document CHEMBL4673350

Catalogue of MIC values
- System: Escherichia coli DH5[alpha]
- TEST_SUMMARY: Inhibition of Escherichia coli DH5alpha NDM-1 assessed as MIC of meropenem at 8 mg/L by CLSI based microdilution method
Kindly answer with a numeric value in µg/mL, unit omitted.

These recorded examples may help you get a feel for the data.
C[C@H](CS)C(=O)N1CCCC[C@@H]1C(=O)O
4
C[C@H](CS)C(=O)N1CCC(C(=O)O)CC1
4

Okay, next one:
Param item = C[C@H](CS)C(=O)N1CCc2ccccc2[C@@H]1C(=O)O ; retrieve measured MIC.
8
